- System tested: RNC_(RodZ): ribosome-nascent chain complex displaying the N-terminal 180 amino acids of RodZ (UniProt P27434)
- Assay protocol: FRET or BRET
Recorded metric: Kd (nM)
Provide only the numeric value, understood in nM.

QUERY: Quick one: Kd for SecA(C98S/S12C) labeled at residue 12 with BODIPY-FL (from UniProt P10408 1-901) (enzyme) ?
RESULT: 55

###

- System tested: RNC_(RodZ): ribosome-nascent chain complex displaying the N-terminal 180 amino acids of RodZ (UniProt P27434)
- Assay protocol: FRET or BRET
Recorded metric: pKd
FYI, pKd means -log10 of a concentration in mol per litre.

QUERY: Quick one: pKd for SecA(C98S/S12C) labeled at residue 12 with BODIPY-FL (from UniProt P10408 1-901) (enzyme) ?
RESULT: 9.00

Reference source for all entries: paper PMC5674894
